MEASURED_TARGET: Human COX‐2 recombinant protein (Homo sapiens, UniProt P35354)
Sequence (P35354 18-604): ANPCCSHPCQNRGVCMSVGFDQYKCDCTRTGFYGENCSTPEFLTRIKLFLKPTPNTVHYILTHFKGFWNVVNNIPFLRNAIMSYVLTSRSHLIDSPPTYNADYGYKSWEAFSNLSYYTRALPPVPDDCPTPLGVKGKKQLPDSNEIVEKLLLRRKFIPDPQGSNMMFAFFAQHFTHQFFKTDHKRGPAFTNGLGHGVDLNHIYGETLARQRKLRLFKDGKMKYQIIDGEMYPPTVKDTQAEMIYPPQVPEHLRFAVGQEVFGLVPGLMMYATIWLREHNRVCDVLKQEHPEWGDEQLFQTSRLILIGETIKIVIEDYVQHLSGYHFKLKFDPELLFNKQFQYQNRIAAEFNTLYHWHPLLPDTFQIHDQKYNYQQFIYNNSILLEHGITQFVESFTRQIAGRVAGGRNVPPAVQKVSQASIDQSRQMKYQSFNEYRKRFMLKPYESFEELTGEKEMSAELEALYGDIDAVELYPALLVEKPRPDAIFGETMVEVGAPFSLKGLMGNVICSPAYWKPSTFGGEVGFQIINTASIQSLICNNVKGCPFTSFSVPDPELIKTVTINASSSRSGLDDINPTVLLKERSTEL
ASSAY_METHOD_TEXT: biochemical
RECORDED_METRIC: pIC50
In plain terms, pIC50 is the concentration in mol/L turned into minus its base-10 logarithm.

Sample C[C@H](C(=O)O)c1ccc(C[C@H]2CCC[C@@H]2O)cc1 [Loxoprofen‐SRS] — what was its pIC50? 7.59

Data origin, for the record: paper PMC4819712
